Data provenance: ChEMBL document CHEMBL2346649

# assay overview: Inhibition of Mycobacterium tuberculosis ribonucleotide reductase by [3H]CDP assay
Each entry below carries its reported IC50.
Please reply with the bare figure in µM and do not write the unit itself.

CC(=O)N[C@@H](CCC(=O)O)C(=O)N[C@@H](CC(=O)O)C(=O)N[C@@H](CC(=O)O)C(=O)N[C@@H](CC(=O)O)C(=O)Nc1cccc2c1N[C@@H](Cc1c[nH]c3ccccc13)C(=O)N(CC(=O)N[C@@H](Cc1ccccc1)C(=O)O)C2: 64

Specify reported IC50 for the molecule shown: `O=C(Nc1cccc2c1N[C@@H](Cc1c[nH]c3ccccc13)C(=O)N(CCO)C2)OCC1c2ccccc2-c2ccccc21`
171

Specify reported IC50 for the molecule shown: `O=C(O)CN1Cc2cccc(NC(=O)OCC3c4ccccc4-c4ccccc43)c2N[C@@H](Cc2c[nH]c3ccccc23)C1=O`
24
